# PROTOCOL DESCRIPTION: activity coefficient (dimensionless); of the first substance listed, at infinite dilution; xn = mol fraction of the nth substance listed
# COND: 322.35 K; Liquid; Chromatography; x1 = 0
RECORDED METRIC: activity coefficient
Numbers only.

// below: answered compounds
# COMPOUND, activity coefficient
data = [
    ("CCCC=O [butanal] + CCCCCCCCCCCCCC[P+](CCCCCC)(CCCCCC)CCCCCC.O=S(=O)([N-]S(=O)(=O)C(F)(F)F)C(F)(F)F", 0.36),
    ("ClCCl [dichloromethane] + CCCCCCCCCCCCCC[P+](CCCCCC)(CCCCCC)CCCCCC.O=S(=O)([N-]S(=O)(=O)C(F)(F)F)C(F)(F)F", 0.25),
    ("c1ccsc1 [thiophene] + CCCCCCCCCCCCCC[P+](CCCCCC)(CCCCCC)CCCCCC.O=S(=O)([N-]S(=O)(=O)C(F)(F)F)C(F)(F)F", 0.4),
]

Please report activity coefficient for every entry that follows.
1. Cc1ccccc1 [toluene] + CCCCCCCCCCCCCC[P+](CCCCCC)(CCCCCC)CCCCCC.O=S(=O)([N-]S(=O)(=O)C(F)(F)F)C(F)(F)F
2. CC#N [acetonitrile] + CCCCCCCCCCCCCC[P+](CCCCCC)(CCCCCC)CCCCCC.O=S(=O)([N-]S(=O)(=O)C(F)(F)F)C(F)(F)F
3. CCCO [propan-1-ol] + CCCCCCCCCCCCCC[P+](CCCCCC)(CCCCCC)CCCCCC.O=S(=O)([N-]S(=O)(=O)C(F)(F)F)C(F)(F)F
4. CC1CCCCC1 [methylcyclohexane] + CCCCCCCCCCCCCC[P+](CCCCCC)(CCCCCC)CCCCCC.O=S(=O)([N-]S(=O)(=O)C(F)(F)F)C(F)(F)F
5. CCOCC [diethyl ether] + CCCCCCCCCCCCCC[P+](CCCCCC)(CCCCCC)CCCCCC.O=S(=O)([N-]S(=O)(=O)C(F)(F)F)C(F)(F)F
6. CCC(C)=O [butanone] + CCCCCCCCCCCCCC[P+](CCCCCC)(CCCCCC)CCCCCC.O=S(=O)([N-]S(=O)(=O)C(F)(F)F)C(F)(F)F
7. c1ccccc1 [benzene] + CCCCCCCCCCCCCC[P+](CCCCCC)(CCCCCC)CCCCCC.O=S(=O)([N-]S(=O)(=O)C(F)(F)F)C(F)(F)F
8. CC(C)OC(C)C [diisopropyl ether] + CCCCCCCCCCCCCC[P+](CCCCCC)(CCCCCC)CCCCCC.O=S(=O)([N-]S(=O)(=O)C(F)(F)F)C(F)(F)F

0.46
0.5
1.21
0.89
0.59
0.27
0.39
0.9

Find the recorded activity coefficient belonging to CO [methanol] + CCCCCCCCCCCCCC[P+](CCCCCC)(CCCCCC)CCCCCC.O=S(=O)([N-]S(=O)(=O)C(F)(F)F)C(F)(F)F and report it.
0.98
